Assay system: T1, 4H968-bH
T1 chain: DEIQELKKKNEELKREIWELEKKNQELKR
Protocol description: two-hybrid library CCNG1;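 further: natural log of median RNA to DNA barcode read ratio; higher means stronger binding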
Assay readout: interaction score

Consider the reported interaction score for these binders:
| Binder | Value observed |
| --- | --- |
| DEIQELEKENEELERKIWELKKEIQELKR [4H170-bH] | 1.47 |
| DEIQELKKKIEELKRENWELEKKNQELER [4H855-bH] | 0.133 |

P: DEIQELEKKNEELKREIWELKKEIQELER [4H457-bH]
Q: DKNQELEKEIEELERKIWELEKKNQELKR [4H3112-bH]
[ask] // compare measured interaction score, left P , right Q , return larger The response must carry the label of the picked entry.
[reply] Q
(Q: 1.05, P: 0.389)
